# test: S16 Schwann cell PMP22 intronic element beta-lactamase assay (AID 624044); note: nearly all actives have a fitted effect of over 15% in size
# condition description: S16 rat Schwann cells, PMP22 element beta-lactamase FRET, 24 h; series mostly up to 38.3 µM
Results filed as inconclusive are left out. Calls of active or inactive are those of the source. Calls come from the whole dose curve.
Hello, when you answer, please use one of the following outcomes: active, inactive

# compound, assigned class
measured = [
    ("CCOC(=O)c1cnc2c(cnn2CC)c1NN=C(C)C", "inactive"),
    ("CC(N=C(NC#N)Nc1ccncc1)C(C)(C)C (centres undefined)", "inactive"),
    ("COc1cc(C(=O)OCCCN2CCCN(CCCOC(=O)c3cc(OC)c(OC)c(OC)c3)CC2)cc(OC)c1OC", "active"),
]

Attention now turns to another entry.
For this compound, state the assay outcome: CCN(Cc1ccncc1)C(=O)C(CO)c1ccccc1 (centres undefined)
inactive

The origin of these recorded values is PubChem BioAssay (NCATS).
